Where do these numbers come from? They come from the supplement of paper PMC8728848.

Reported glycan array binding signal (z-score) is given for each of the following binders.
Molecular target: Gal(b1-3)GlcNAc(b1-2)Man(a1-3)[Gal(b1-3)GlcNAc(b1-2)Man(a1-6)]Man(b1-4)GlcNAc(b1-4)GlcNAc
Assay: glycan array binding signal (z-score within array); higher = stronger binding
Conditions: glycan notation: IUPAC condensed, linker removed
The full list was thinned out, with the strongest signals kept by preference.
Hey, just send me the number, nothing else.

Examples with their reported glycan array binding signal (z-score) follow.
>>> measured_value("SGC, Q9M345 (protein) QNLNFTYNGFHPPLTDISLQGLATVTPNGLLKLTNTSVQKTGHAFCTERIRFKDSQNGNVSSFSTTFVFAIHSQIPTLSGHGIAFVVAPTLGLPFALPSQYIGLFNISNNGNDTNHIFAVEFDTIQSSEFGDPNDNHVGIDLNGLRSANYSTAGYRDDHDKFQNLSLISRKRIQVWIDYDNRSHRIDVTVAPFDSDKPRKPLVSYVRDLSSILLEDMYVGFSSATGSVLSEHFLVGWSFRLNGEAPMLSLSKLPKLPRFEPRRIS")
3.77
>>> measured_value("his-Lectin-24A (Drosophila melanogaster) (protein) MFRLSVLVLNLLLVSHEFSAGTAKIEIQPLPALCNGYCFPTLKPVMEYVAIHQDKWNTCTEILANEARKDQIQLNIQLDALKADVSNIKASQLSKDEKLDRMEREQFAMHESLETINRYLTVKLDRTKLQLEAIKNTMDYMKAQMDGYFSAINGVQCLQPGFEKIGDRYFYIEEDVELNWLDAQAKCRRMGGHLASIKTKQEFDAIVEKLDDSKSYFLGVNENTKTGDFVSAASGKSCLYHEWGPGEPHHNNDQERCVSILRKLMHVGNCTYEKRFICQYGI")
1.74
>>> measured_value("Si Bti9 1b-HA (Solanum lycopersicum) (protein) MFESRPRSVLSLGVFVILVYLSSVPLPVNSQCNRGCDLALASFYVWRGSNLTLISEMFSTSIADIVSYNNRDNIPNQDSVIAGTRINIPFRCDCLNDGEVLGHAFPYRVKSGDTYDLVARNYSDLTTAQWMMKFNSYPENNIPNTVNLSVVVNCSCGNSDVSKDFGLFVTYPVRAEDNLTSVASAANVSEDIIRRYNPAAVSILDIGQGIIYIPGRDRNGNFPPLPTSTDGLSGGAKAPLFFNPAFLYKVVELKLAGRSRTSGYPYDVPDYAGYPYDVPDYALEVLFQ")
3.24

Here's the next entry for you.
Answer with the recorded glycan array binding signal (z-score) of MCL (Mus musculus), Q9Z2H6 (protein) MWLEESQMKSKGTRHPQLIPCVFAVVSISFLSACFISTCLVTHHYFLRWTRGSVVKLSDYHTRVTCIREEPQPGATGGTWTCCPVSWRAFQSNCYFPLNDNQTWHESERNCSGMSSHLVTINTEAEQNFVTQLLDKRFSYFLGLADENVEGQWQWVDKTPFNPHTVFWEKGESNDFMEEDCVVLVHVHEKWVWNDFPCHFEVRRICKLPGITFNWKPSK only.
-0.92
